Examples of molecules with documented viability at 24 h, 3.125 ug/ml follow.
protocol_notes: Cytotoxicity against mouse RAW264.7 cells assessed as cell viability at 3.125 ug/ml measured after 24 hrs in presence of LPS by MTT assay (reference value: 96.3 +/- 1%)
Type: toxicity
experimental_setup: read-out: Activity

| molecule | unit_of_measurement | viability at 24 h, 3.125 ug/ml |
| --- | --- | --- |
| CC(=O)Oc1ccc(-c2oc3c4c(cc(O)c3c(=O)c2CC=C(C)C)OC(C)(C)C=C4)c(OC(C)=O)c1 | % | 91 |
| CC(C)(O)CCc1c(-c2ccc(O)cc2O)oc2c3c(cc(O)c2c1=O)OC(C)(C)C=C3 | % | 95.9 |
| CC(C)=CC1Oc2cc(O)ccc2-c2oc3c4c(cc(O)c3c(=O)c21)OC(C)(C)C=C4 (configuration not stated) | % | 86.3 |
| CC(C)=CCc1c(-c2ccc(O)cc2O)oc2c3c(cc(O)c2c1=O)OC(C)(C)C=C3 | % | 94.5 |
| CC(C)=CCC/C(C)=C/Cc1c(-c2ccc(O)cc2O)oc2c(CC=C(C)C)c(O)cc(O)c2c1=O | % | 100 |
| O=[N+]([O-])/C=C\c1ccc(O)cc1 | % | 89 |
| CC1(C)C=Cc2c(cc(O)c3c(=O)c4c(oc23)-c2ccc(O)cc2OC(C(C)(C)O)C4)O1 (configuration not stated) | % | 98.3 |
